System Under Test: Ubiquitin carboxyl-terminal hydrolase 28 (Homo sapiens) (UniProt Q96RU2)
Sequence (Q96RU2 whole entry, looked up): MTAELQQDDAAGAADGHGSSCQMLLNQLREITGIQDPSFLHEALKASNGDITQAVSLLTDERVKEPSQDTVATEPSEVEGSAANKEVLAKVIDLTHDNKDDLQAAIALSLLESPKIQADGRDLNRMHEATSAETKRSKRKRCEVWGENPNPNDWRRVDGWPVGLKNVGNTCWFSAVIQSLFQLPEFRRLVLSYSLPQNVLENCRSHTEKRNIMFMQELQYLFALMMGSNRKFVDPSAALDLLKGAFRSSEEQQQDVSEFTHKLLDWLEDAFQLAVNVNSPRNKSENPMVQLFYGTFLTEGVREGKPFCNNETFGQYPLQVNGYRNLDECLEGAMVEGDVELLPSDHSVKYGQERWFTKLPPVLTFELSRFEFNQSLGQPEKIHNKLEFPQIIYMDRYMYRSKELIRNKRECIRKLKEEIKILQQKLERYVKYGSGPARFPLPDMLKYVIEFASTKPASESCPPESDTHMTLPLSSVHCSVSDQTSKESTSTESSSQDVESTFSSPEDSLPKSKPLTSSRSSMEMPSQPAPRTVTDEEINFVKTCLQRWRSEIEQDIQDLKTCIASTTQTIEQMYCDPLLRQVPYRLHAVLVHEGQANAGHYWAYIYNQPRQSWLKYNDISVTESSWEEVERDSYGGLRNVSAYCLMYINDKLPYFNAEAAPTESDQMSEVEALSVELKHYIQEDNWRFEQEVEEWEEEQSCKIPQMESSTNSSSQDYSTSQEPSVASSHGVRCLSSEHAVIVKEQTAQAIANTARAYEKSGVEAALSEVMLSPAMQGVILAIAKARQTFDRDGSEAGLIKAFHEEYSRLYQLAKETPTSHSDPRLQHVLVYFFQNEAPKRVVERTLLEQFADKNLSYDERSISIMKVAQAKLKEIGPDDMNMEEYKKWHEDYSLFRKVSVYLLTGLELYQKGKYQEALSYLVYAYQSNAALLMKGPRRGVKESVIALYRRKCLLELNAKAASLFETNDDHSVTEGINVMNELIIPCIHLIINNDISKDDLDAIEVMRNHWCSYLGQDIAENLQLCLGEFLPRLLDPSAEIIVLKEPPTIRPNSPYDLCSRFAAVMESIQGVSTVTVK
Assay Method Text: Concentration-response biochemical assay confirming initial hits as inhibitors of ubiquitin-specific protease 28 (AID 1645866)
Settings: purified USP28, ubiquitin-rhodamine fluorescence, 30 min
Calls of active or inactive are those of the source.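 How the source made its calls: active means in confirmatory dose-response testing, peak deubiquitinase inhibition of 30% or more; inactive means the rest.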
Outcomes: active, inactive

Compound	Class Assignment
O=C(Cn1cncc(C(=O)NC2CCCC2)c1=O)Nc1cccc(F)c1	active
CN1CC2CN(C(=O)c3ccc(F)cc3)CCN2Cc2ccccc21 (stereo not given)	inactive
CC(=O)Nc1ccc(S(=O)(=O)NCc2ccc(C(=O)NCCc3ccc(Cl)cc3)cc2)cc1	active
Cc1ccc(C(=O)NCc2ccc(C(=O)Nc3ccc(C)c(C)c3)o2)cc1	active
O=C(c1ccco1)N1CCC2(CC1)CC1(CO2)Nc2ccccc2-n2cccc21 (stereo not given)	active
CCCNC(=O)c1ccn(-c2ccc3ccc(-c4cnn(C)c4)cn23)n1	inactive
O=S(=O)(Nc1ccc(O)cc1)c1ccc2oc3ccc(S(=O)(=O)Nc4ccc(O)cc4)cc3c2c1	active
CCc1ccc(-c2nc(SCC(=O)Nc3ccc4[nH]c(=O)[nH]c4c3)n[nH]2)cc1	active
COc1ccc(OC)c(NC(=O)CSc2nc(C)nc3c2oc2ccccc23)c1	active
Cc1cc(=O)n(CC(=O)Nc2ccccc2F)c(Nc2ccc(F)cc2)n1	active

Source of measurements: PubChem BioAssay AID1645866
